Data provenance: patent US20230220084A1

# test target: hCLEC12A-His fusion protein (human) (UniProt Q5QGZ9)
# Sequence (Q5QGZ9 65-265 limits assumed): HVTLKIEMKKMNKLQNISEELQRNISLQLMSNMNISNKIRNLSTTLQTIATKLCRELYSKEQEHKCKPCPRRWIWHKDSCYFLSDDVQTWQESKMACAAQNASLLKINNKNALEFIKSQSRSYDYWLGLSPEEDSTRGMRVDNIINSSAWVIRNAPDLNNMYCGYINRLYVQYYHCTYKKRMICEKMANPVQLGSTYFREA
# protocol details: SPR screening, semi-purified protein
A collection of binders and their measured kon
Answer in M⁻¹ s⁻¹, number only, no unit symbol.

AB0188 (bispecific antibody, part only; not given: Fc, unrelated binder arm, linkers, not shown: another chain or arm of the molecule; a dimerising Fc or GST; small tags and cut ends) scFv: DIKMTQSPSSLSASVGDRVTITCKASQDIYNYLSWFQQKPGKAPKPLIYRANILVSGVPSRFSGSGSGQDYTLTISSLQPEDIATYYCLQFDAFPFTFGCGTKLEIKGGGGSGGGGSGGGGSGGGGSEVQLVESGGGVVQPGGSLRLSCAASGFTFNSFGMHWVRQAPGKCLEWVAFISSGSTSIYYANTVKGRFTISRDNSKNTLYLQMNSLRAEDTAVYYCARDGYPTGGAMDYWGQGTSVTVSS = 569000
F3′-1295 (bispecific antibody, part only; not given: Fc and unrelated binding arm, not shown: another chain or arm of the molecule; a dimerising Fc or GST) scFv: QLQLQESGPGLVKPSETLSLTCTVSGFSLTNYGLHWIRQPPGKCLEWIGVIWSGGKTDYNPSLKSRVTISKDTSKNQFSLKLSSVQAADTAVYYCAKYDYDDSLDYWGQGTLVTVSSGGGGSGGGGSGGGGSGGGGSDIQMTQSPSSLSASVGDRVTITCHASQNINFWLSWYQQKPGKIPKLLIYEASNLHTGVPSRFSGSGSGTRFTLTISSLQPEDIATYYCQQSHSYPLTFGCGTKLEIK = 520000
F3′-1306 (bispecific antibody, part only; not given: Fc and unrelated binding arm, not shown: another chain or arm of the molecule; a dimerising Fc or GST; small tags and cut ends) scFv: DIQMTQSPSSLSASVGDRVTITCHASQNINFWLSWYQQKPGKAPKLLIYEASNLHTGVPSRFSGSGSGTRFTLTISSLQPEDIATYYCQQSHSYPLTFGCGTKLEIKGGGGSGGGGSGGGGSGGGGSQLQLQESGPGLVKPSETLSLTCTVSGFSLTNYGLHWIRQPPGKCLEWIGVIWSGGKTDYNPSLKSRVTISKDTSKNQFSLKLSSVQANDTAVYYCAKYDYDDSLDYWGQGTLVTVSS = 9.48e+06

Note: attention shifts to another entry.
Request: // kon lookup, key: F3′-1292 (bispecific antibody, part only; not given: Fc and unrelated binding arm, not shown: another chain or arm of the molecule; a dimerising Fc or GST) scFv: QLQLQESGPGLVKPSETLSLTCTVSGFSLTNYGLHWIRQPPGKCLEWIGVIWSGGKTDYNPSLKSRVTISKDTSKNQFSLKLSSVQANDTAVYYCAKYDYDDSLDYWGQGTLVTVSSGGGGSGGGGSGGGGSGGGGSDIQMTQSPSSLSASVGDRVTITCHASQNINFWLSWYQQKPGKIPKLLIYEASNLHTGVPSRFSGSGSGTRFTLTISSLQPEDIATYYCQQSHSYPLTFGCGTKLEIK
Result: 402000
